test system: LOC_OS01G70970-cb002; test: thermal shift delta Tm vs DMSO control; higher = stronger stabilization (binding); details: 12.5 µM; protein concentration 2 µM;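 further: purified Escherichia coli-expressed rice kinase domain construct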
measurement-name: thermal shift delta Tm
// unit must come after the numeric part

1. CCCCCCCCCCCCCCCCOP(=O)([O-])OCC[N+](C)(C)C    -8.33 °C
2. NC(=O)c1ccc2nc(-c3ccc(Oc4ccc(Cl)cc4)cc3)[nH]c2c1    0.31 °C

Please go through the list and note thermal shift delta Tm for each compound.
1. CN1CC[C@H](c2c(O)cc(O)c3c(=O)cc(-c4ccccc4Cl)oc23)[C@H](O)C1 [Flavopiridol (Alvocidib)]
2. COC(=O)Nc1ccc(-c2nc(N3CCOCC3)c3cnn(C4CCN(C(=O)OC)CC4)c3n2)cc1
3. Cn1cnc2c(F)c(Nc3ccc(Br)cc3Cl)c(C(=O)NOCCO)cc21
4. CN(C)S(=O)(=O)c1ccc2c(c1)/C(=C/c1cc3c([nH]1)CCCC3)C(=O)N2
5. O=c1ncn2nc(Sc3ccc(F)cc3F)ccc2c1-c1c(Cl)cccc1Cl
6. CC(C)CCN1c2nc(Nc3cc(F)c(O)c(F)c3)ncc2N(C)C(=O)C1C (stereo unspecified)
7. CC(C)Nc1cc(-c2c[nH]c(C(=O)N[C@H](CO)c3cccc(Cl)c3)c2)c(Cl)cn1

### Response
1. 1.4 °C
2. 0.2 °C
3. 0.48 °C
4. 5.65 °C
5. 0.12 °C
6. 4.67 °C
7. 0.59 °C

Please go through the list and note thermal shift delta Tm for each compound.
1. O=C(O)c1ccc(-c2c[nH]c3ncc(-c4ccccc4)cc23)cc1C1CCCC1
2. C#Cc1cccc(Nc2ncnc3cc(OC)c(OCCCCCCC(=O)NO)cc23)c1
3. O=C(NOCCO)c1ccc2cncn2c1Nc1ccc(I)cc1F
4. Nc1nccc(Oc2ccc(NC(=O)c3c[nH]cc(-c4ccc(F)cc4)c3=O)cc2F)c1Cl
5. CCn1c(-c2nonc2N)nc2cnc(Oc3cccc(NC(=O)c4ccc(OCCN5CCOCC5)cc4)c3)cc21
6. C=CC(=O)N1CCC(Oc2cc3c(Nc4ccc(Cl)c(Cl)c4F)ncnc3cc2OC)CC1 [Poziotinib (HM781-36B)]

### Response
6.62 °C
0.22 °C
-0.05 °C
6.22 °C
0.14 °C
0.11 °C

Please go through the list and note thermal shift delta Tm for each compound.
1. CS(=O)(=O)c1ccc(-c2cnc(N)c(C(=O)Nc3ccccc3)n2)cc1
2. Cc1ccc(NC(=O)Nc2cc(C(F)(F)F)ccc2F)cc1Nc1ccc2c(c1)NC(=O)/C2=C\c1ccc[nH]1
3. COc1ncc(-c2ccc3nccc(-c4ccnnc4)c3c2)cc1NS(=O)(=O)c1ccc(F)cc1F
4. Cc1cc(Nc2ncnc3ccc(-c4ccc(CNCCS(C)(=O)=O)o4)cc23)ccc1Oc1ccn2ncnc2c1

### Response
["1.04 °C", "1.83 °C", "0.34 °C", "0.3 °C"]

* * *

Assignment: determine reported thermal shift delta Tm for the given compounds.
test system: LOC_OS01G02750-cb003; test: thermal shift delta Tm vs DMSO control; higher = stronger stabilization (binding); settings: 12.5 µM; protein concentration 2 µM
Give bare numbers, in °C.

Past entries and their recorded results:
1) CCCCCCCCCC(=O)CC(O)S(=O)(=O)O (configuration not stated) [Sodium Houttuyfonate]    -0.18
2) C[C@H](Nc1ncnc2nc[nH]c12)c1cc2cccc(Cl)c2c(=O)n1-c1ccccc1 [Duvelisib (IPI-145, INK1197)]    0.34
3) COc1cc2ncc(-c3ccccc3)nc2cc1OC [Tyrphostin AG 1296]    1.6
4) CN1CCN(c2nc(C3=C(c4c[nH]c5ccccc45)C(=O)NC3=O)c3ccccc3n2)CC1 [Sotrastaurin]    3.23
5) CS(=O)(=O)N1CCN(Cc2cc3nc(-c4cccc5[nH]ncc45)nc(N4CCOCC4)c3s2)CC1 [Pictilisib (GDC-0941)]    0.47

Please go through the list and note thermal shift delta Tm for each compound.
1. COc1ccc(-c2ccc3ncc4c(c3c2)n(-c2ccc(N3CCNCC3)c(C(F)(F)F)c2)c(=O)n4C)cn1
2. CN1CCN(c2ccc(-c3ccncc3-c3cc(F)c(O)c(F)c3)cc2)CC1

### Response
1. 2.95
2. 0.81

Reference source for all entries: the supplement of paper PMC9694430
